Readings of IC50 for the listed molecules
Experimental System: renin (Homo sapiens, UniProt P00797)
Experiment: in vitro renin inhibitory activity, radioimmunoassay for angiotensin I
Format: biochemical
Condition Description: read-out: IC50
Protocol: The effectiveness of the aforementioned compounds is determined by a test for in vitro renin inhibitory activity. This activity is determined by a standard radioimmunoassay for angiotensin I. In this assay the enzyme, renin, incubated for two hours at 37° in the presence of a substrate, angiotensinogen, generates the product, angiotensin I. Test compounds are added to the incubation mixture.
Non-standard residues stand in square brackets, D forms with d. Residues, ends and D or L forms follow the SMILES beside them. *: point of attachment. Arg(NO2) = N=C(NCCC[C@H](N)C(=O)O)N[N+](=O)[O-]; Sta = CC(C)C[C@H](N)[C@@H](O)CC(=O)O; Boc = CC(C)(C)OC(=O)*; NHBn = c1ccc(CN*)cc1

- Molecule: "C=CCCCC(NC(=O)C(Cc1cccc2ccccc12)Cc1cccc2ccccc12)C(=O)N[C@@H](CC(C)C)[C@@H](O)CC(=O)N[C@@H](CC(C)C)C(=O)NCc1ccccc1 (single isomer, unassigned; isomer b) [Example 49]"
  Experimental System: "renin (Homo sapiens, UniProt P00797)"
  IC50 [nM]: 3500
- Molecule: "CC(C)C[C@H](NC(=O)C[C@H](O)[C@H](CC(C)C)NC(=O)[C@H](CCCNC(=N)N[N+](=O)[O-])NC(=O)[C@H](Cc1ccccc1)NC(=O)OC(C)(C)C)C(=O)NCc1ccccc1 [Example 1, BOC-PHE-ARG(NO2)-STA-LEU-NHCH2 Ph] (Boc-F[Arg(NO2)][Sta]L-NHBn)"
  Experimental System: "renin (Homo sapiens, UniProt P00797)"
  IC50 [nM]: 63
- Molecule: "CC[C@H](C)CNC(=O)C[C@H](O)[C@H](CC(C)C)NC(=O)C(Cc1nc2ccccc2[nH]1)NC(=O)C(Cc1cccc2ccccc12)Cc1cccc2ccccc12 (some centres unmarked)"
  Experimental System: "renin (Homo sapiens, UniProt P00797)"
  IC50 [nM]: 2800
- Molecule: "CC[C@H](C)CNC(=O)C[C@H](O)[C@H](CC(C)C)NC(=O)C(CCCCCC(=O)NC)NC(=O)C(Cc1cccc2ccccc12)Cc1cccc2ccccc12 (some centres unmarked)"
  Experimental System: "renin (Homo sapiens, UniProt P00797)"
  IC50 [nM]: 1200
- Molecule: "CCC(C)CNC(=O)C[C@H](O)[C@H](CC(C)C)NC(=O)[C@H](CCCCn1cccc1)NC(=O)C(Cc1cccc2ccccc12)Cc1cccc2ccccc12 (some centres unmarked)"
  Experimental System: "renin (Homo sapiens, UniProt P00797)"
  IC50 [nM]: 540

====

Experimental System: UniProtKB P00797
Sequence (P00797 67-406): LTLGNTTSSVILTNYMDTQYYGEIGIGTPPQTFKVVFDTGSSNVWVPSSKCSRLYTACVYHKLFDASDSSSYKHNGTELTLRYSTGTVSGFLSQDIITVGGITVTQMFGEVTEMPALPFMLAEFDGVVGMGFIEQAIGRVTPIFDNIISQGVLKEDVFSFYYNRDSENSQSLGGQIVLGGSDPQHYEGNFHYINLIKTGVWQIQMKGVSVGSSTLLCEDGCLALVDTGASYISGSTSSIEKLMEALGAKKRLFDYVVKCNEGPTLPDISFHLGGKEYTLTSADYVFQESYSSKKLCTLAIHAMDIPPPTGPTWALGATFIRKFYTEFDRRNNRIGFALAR
Experiment: in vitro renin inhibitory activity, radioimmunoassay for angiotensin I
Format: biochemical
Condition Description: read-out: IC50
Parameter Measured: log10 of IC50 (log10 of the value in nM)

- Compound: "CC(C)C[C@H](NC(=O)C[C@H](O)[C@H](CC(C)C)NC(=O)C(CCCCCCNC(=O)OCc1ccccc1)NC(=O)C(Cc1cccc2ccccc12)Cc1cccc2ccccc12)C(=O)NCc1ccccc1 (stereo partly drawn)"
  log10 of IC50: 1.77
- Compound: "CNC(=S)NCC#CCC(NC(=O)C(Cc1cccc2ccccc12)Cc1cccc2ccccc12)C(=O)N[C@@H](CC1CCCCC1)[C@@H](O)CC(=O)NCCN1CCOCC1 (stereo partly drawn)"
  log10 of IC50: 1.68
- Compound: "CC[C@H](C)CNC(=O)C[C@H](O)[C@H](CC(C)C)NC(=O)[C@H](CCCCNC(=O)C[S+](C)[O-])NC(=O)C(Cc1cccc2ccccc12)Cc1cccc2ccccc12 (stereo partly drawn)"
  log10 of IC50: 1.61
- Compound: "CC[C@H](C)CNC(=O)C[C@H](O)[C@H](CC(C)C)NC(=O)C(NC(=O)[C@H](Cc1ccccc1)NC(=O)OC(C)(C)C)C(=O)OC (stereo partly drawn)"
  log10 of IC50: 1.61
- Compound: "CC[C@H](C)CNC(=O)C[C@H](O)[C@H](CC(C)C)NC(=O)[C@H](CCCCNC(N)=O)NC(=O)C(Cc1cccc2ccccc12)Cc1cccc2ccccc12"
  log10 of IC50: 1.70
- Compound: "CNC(=S)NCCCC[C@H](NC(=O)C(Cc1cccc2ccccc12)Cc1cccc2ccccc12)C(=O)N[C@@H](CC(C)C)[C@@H](O)CC(=O)NCCN1CCOCC1"
  log10 of IC50: 2.08
- Compound: "CCC(C)CNC(=O)C[C@H](O)[C@H](CC(C)C)NC(=O)[C@H](CCCCNC(N)=NC#N)NC(=O)C(Cc1cccc2ccccc12)Cc1cccc2ccccc12 (stereo partly drawn)"
  log10 of IC50: 1.26
- Compound: "CNC(=O)NCCCC[C@H](NC(=O)C(Cc1cccc2ccccc12)Cc1cccc2ccccc12)C(=O)N[C@@H](CC(C)C)[C@@H](O)CC(=O)N[C@@H](CC(C)C)C(=O)NCc1ccccc1"
  log10 of IC50: 1.92
- Compound: "CCC(C)CNC(=O)C[C@H](O)[C@H](CC(C)C)NC(=O)C(C/C=C\\CNC(C)=O)NC(=O)C(Cc1cccc2ccccc12)Cc1cccc2ccccc12 (stereo partly drawn)"
  log10 of IC50: 2.00
- Compound: "CC[C@H](C)CNC(=O)C[C@H](O)[C@H](CC(C)C)NC(=O)[C@H](CCCCNC(=O)CSC)NC(=O)C(Cc1cccc2ccccc12)Cc1cccc2ccccc12"
  log10 of IC50: 1.99
- Compound: "CC[C@H](C)CNC(=O)C[C@H](O)[C@H](CC(C)C)NC(=O)[C@H](CCCCNC(=S)NC)NC(=O)C(Cc1ccccc1)Cc1cccc2ccccc12 (stereo partly drawn)"
  log10 of IC50: 2.15
- Compound: "CC(C)C[C@H](NC(=O)[C@H](CCCCNC(=N)N[N+](=O)[O-])NC(=O)C(CC(=O)N1CCOCC1)Cc1cccc2ccccc12)[C@@H](O)CC(=O)NCCN1CCOCC1 (stereo partly drawn)"
  log10 of IC50: 2.62
